Reference source for all entries: patent US20110086770A1

- subject_of_test: T1, recombinant human IL-23R/Fc chimera (R&D Systems) (human, UniProt Q5VWK5 24-353)
- T1 construct: bought; also called human IL-23R/Fc fusion protein; rhIL23RFc
- T1 sequence (looked up): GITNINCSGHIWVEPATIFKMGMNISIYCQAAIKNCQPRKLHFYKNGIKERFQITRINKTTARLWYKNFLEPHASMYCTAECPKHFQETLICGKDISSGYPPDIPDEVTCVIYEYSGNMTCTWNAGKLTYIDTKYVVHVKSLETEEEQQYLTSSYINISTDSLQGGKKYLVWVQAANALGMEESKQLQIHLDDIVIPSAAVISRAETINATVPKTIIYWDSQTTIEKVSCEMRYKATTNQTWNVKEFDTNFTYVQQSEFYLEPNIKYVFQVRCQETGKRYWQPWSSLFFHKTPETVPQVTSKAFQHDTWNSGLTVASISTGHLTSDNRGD
- method_summary: SPR (Biacore), captured IL-23R/Fc, ATRIMER
assay_readout: kon (M⁻¹ s⁻¹)
All answers are understood in M⁻¹ s⁻¹, so give the number only.

binder | measurement_units | observed_measurement
101-51-1A4 ATRIMER (designed binder, also called ATRIMER complex 1A4) EPPTQKPKKIVNAKKDVVNTKMFEELKSRLDTLAQEVALLKEQQALQTVCLKGTKVHMKCFLAFTQTKTFHEASEDCISRGGTLSTPQTGSENDALYEYLRQSVGNEAEIWLGLNGSALTNTWVDMTGARIAYKNWERPALVQPRGGFGVFGENCAVLSGAANGKWFDKRCRDQLPYICQFGIV | M⁻¹ s⁻¹ | 1.02e+06

// next entry
q: Give recorded kon. 101-51-1A9 ATRIMER (designed binder, ATRIMER is a homotrimer; one protomer is given., not shown: C-terminal purification tag: Myc/His6 (pANA4) or HA-StrepII (pANA10)) EPPTQKPKKIVNAKKDVVNTKMFEELKSRLDTLAQEVALLKEQQALQTVCLKGTKVHMKCFLAFTQTKTFHEASEDCISRGGTLSTPQTGSENDALYEYLRQSVGNEAEIWLGLNGSALTNTWVDMTGARIAYKNWEPARQPQPGGGFGYFGENCAVLSGAANGKWFDKRCRDQLPYICQFGIV
a: 345000
